Tested on: HCT-15 colon
Test: NCI tumour cell line growth inhibition, 48 h
Answer each item with its documented TGI.

Sample records with TGI:
smiles.repr	TGI
COC(=O)[C@@H](C)C[C@H](Cc1ccccc1)NC(=O)c1csc([C@@H](C[C@H](C(C)C)N(C)C(=O)[C@@H](NC(=O)[C@H]2CCCCN2C)C(C(F)(F)F)C(F)(F)F)OC(C)=O)n1	> 16.7 µM
Cc1nc2sc(C(=O)Nc3ccccc3)c(N)c2cc1C(=O)c1ccccc1	> 50 µM

Here is another compound to look at.
Please look up its TGI: `CC1=C(C(=O)NCc2ccccc2)C(c2ccco2)C(C(=O)NCc2ccccc2)=C(C)N1`
> 100 µM

====

Answer each item with its documented TGI.
Tested on: HCT-15 colon
Experiment: NCI tumour cell line growth inhibition, 48 h

> print(dat)
                                   compound      value
1  CC(C)=CCC[C@@H](C)C1=C(O)C(Nc2ccccc2)=C(C)C(=O)C1=O  > 78.7 µM
2  CCN(CC)CCNc1ccc([N+](=O)[O-])c2nc3ccc(OC)cc3c(N)c12    2.68 µM
3  COC(=O)C(/C(=N\O)C(=O)Nc1ccc(Br)cc1)c1nc2ccccc2[nH]c1=O (stereo unspecified)   > 100 µM

Please state, for each entry, its recorded TGI.
1. Nc1ccc(C(=O)O)cc1
2. CCN(CCC#N)C(=O)Nc1ccccc1
3. COc1cc(CCc2ccncc2)cc(OC)c1OC

52 µM
> 100 µM
> 100 µM

====

Tested on: COLO 205 colon
Assay: NCI tumour cell line growth inhibition, 48 h
Answer each item with its documented TGI.

Sample records with TGI:
> print(dat)
                                smiles.repr     value
1       Cc1cn2cc(-c3ccc4c(c3)CC(=O)N4)nc2s1  > 100 µM
2  Cn1c2ccccc2c2c3c(c4c5ccccc5n(C)c4c21)C(=O)N(c1ccccc1)C3=O  > 100 µM
3  Cc1cc(OCc2nnc3n2N=C(c2cc(F)c(Cl)cc2Cl)/C(=C/c2ccc(-c4ccc(Cl)cc4)o2)S3)ccc1Cl   > 50 µM

Please state, for each entry, its recorded TGI.
1. CCCCCCCCc1cc(O)ccc1O
2. NNS(=O)(=O)c1ccc(/C=C2\NC(=O)NC2=O)cc1
3. O=C1c2cc3ncsc3cc2C(=O)c2c(O)ccc(O)c21

["68.7 µM", "> 100 µM", "> 100 µM"]

Please state, for each entry, its recorded TGI.
1. c1ccc(OCc2nnc(CCCCCCCCc3nnc(COc4ccccc4)o3)o2)cc1
2. COC(=N)CCCl
3. N#C/C(=C1\OC(N)=C(c2ccc(Cl)cc2)C1=O)c1ccc(Cl)cc1
4. CN(C)Cc1cc(C(C)(C)C)cc(CN(C)C)c1O
5. COc1cc(CCc2ccncc2)cc(OC)c1OC

> 100 µM
> 100 µM
32.8 µM
> 100 µM
> 100 µM

====

Tested on: OVCAR-8 ovarian
Assay: NCI tumour cell line growth inhibition, 48 h
Answer each item with its documented GI50.

Please state, for each entry, its recorded GI50.
1. Cn1cccc1-c1cc(-c2ccccc2)nc(N)c1C#N
2. CC[C@@H](C(=O)[C@@H](C)[C@@H](O)[C@H](C)[C@@H]1O[C@@H]([C@@H](CC)C(=O)O)CC[C@@H]1C)[C@H]1O[C@]2(C=C[C@@H](O)[C@]3(CC[C@@](C)([C@H]4CC[C@](O)(CC)[C@H](C)O4)O3)O2)[C@H](C)C[C@@H]1C
3. O=S(=O)(Nc1ccc(Cl)c(Cl)c1)c1ccc(-c2cnc(C3CC3)o2)cc1
4. N=C(N)c1ccc(-c2ccc(-c3ccc(Cl)cc3Cl)s2)nc1

1: > 100000 nM; 2: 1200 nM; 3: 1230 nM; 4: 2510 nM

====

Test system: M19-MEL melanoma
Experiment: NCI tumour cell line growth inhibition, 48 h
experimental.readout: TGI

Sample records with TGI:
> print(dat)
                                   compound  target.or.test.system     value
1  O/N=C1\C(=C\c2ccc3c(c2)OCCO3)CCCC1C(NO)c1ccc2c(c1)OCCO2 (stereo unspecified)       M19-MEL melanoma   52.5 µM
2            Oc1ccc(O)c(-n2cccn2)c1-n1cccn1       M19-MEL melanoma  > 100 µM
3       N#CNC1=NCCC(=O)N1CCc1c[nH]c2ccccc12       M19-MEL melanoma  > 100 µM

Please state, for each entry, its recorded TGI.
1. CC1(C2CCC3(C)C(C2)C3Sc2ccccc2)OCCO1 (stereo unspecified)
2. CCCCCC/C(CC(=O)CCC(=O)NCCc1ccccc1)=N\Nc1ccc([N+](=O)[O-])cc1[N+](=O)[O-]
3. CCOC(=O)C(=O)Nc1nc2ccc(C)cc2s1

1: 40.6 µM; 2: > 100 µM; 3: > 100 µM

====

Answer each item with its documented GI50.
System: SK-MEL-28 melanoma
Experiment: NCI tumour cell line growth inhibition, 48 h

Sample records with GI50:
> print(dat)
                                   molecule  experimental.readout    value
1  CC1=C(SCCC(=O)OC(C[Se]C2=C(C)C(=O)c3ccccc3C2=O)C(=O)NC(C)(C)C)C(=O)c2ccccc2C1=O (stereo not given)                  GI50  1.78 µM
2  CSc1nc2ccc(C)cc2cc1/C=C1/C=C(c2ccccc2)NC1=O                  GI50  23.1 µM
3  C1CC[N-]CC1.CC(=N\O)/C(C)=N/O.CC(=N\O)/C(C)=N/O.C[CH-]C(C)O.[Co+2]                  GI50  29.2 µM

Please state, for each entry, its recorded GI50.
1. Cn1cccc1-c1cc(-c2ccccc2)nc(N)c1C#N
2. N=C(N)c1ccc(-c2ccc(-c3ccc(Cl)cc3Cl)s2)nc1

["> 100 µM", "1.76 µM"]

====

Tested on: MDA-MB-435
Test: NCI tumour cell line growth inhibition, 48 h
experimental.readout: TGI (µM)
One number for each entry, in µM.

Sample records with TGI:
compound	TGI / µM
CCC(C)N1CN(c2ccccc2)C2(CCN(CCCC3(c4ccc(F)cc4)OCCO3)CC2)C1=O (stereo not drawn)	45.6
COc1ccc(C2C3=C(COC3=O)N(CCO)c3cc4c(cc32)CCC4)cc1 (stereo not drawn)	5.09
C=C1CC(O)C2C(=C)C(=O)OC2C2C(C)C(=O)CC12 (stereo not drawn)	33.1
CN1C/C(=C\c2cccs2)C(=O)/C(=C/c2cccs2)C1	34.1
COC(=O)[C@@H](C)C[C@H](Cc1ccccc1)NC(=O)c1csc([C@@H](C[C@H](C(C)C)N(C)C(=O)[C@@H](NC(=O)[C@H]2CCCCN2C)C(C(F)(F)F)C(F)(F)F)OC(C)=O)n1	0.0219

Please state, for each entry, its recorded TGI.
1. C=Cc1cc(OC)c2c(c1)c(=O)oc1c2cc(OC)c2c(O)ccc(C3OC(C(C)O)C(O)C3O)c21 (stereo not drawn)
2. Clc1ncnc2c1nc(C#Cc1ccccc1)n2C1CCCCO1 (stereo not drawn)
3. O=S(=O)(Nc1ccc(Cl)c(Cl)c1)c1ccc(-c2cnc(C3CC3)o2)cc1
4. CSc1nc2ccc(C)cc2cc1/C=C1/C=C(c2ccccc2)NC1=O
5. N=C(N)c1ccc(-c2ccc(-c3ccc(Cl)cc3Cl)s2)nc1
6. O=C1C=CC(=O)c2c(O)c(N(CCCl)CCCl)c(Cl)c(O)c21
7. CCCC(=O)OC(OC(=O)CCC)c1ccc([N+](=O)[O-])o1

0.0337
5.84
0.674
21
3.11
5.83
47.4

====

System: LOX IMVI melanoma
Assay: NCI tumour cell line growth inhibition, 48 h
experimental.readout: TGI

Sample records with TGI:
> print(dat)
                                   molecule  experimental.readout     value
1  CC(C)c1cc(C(C)C)c(B(c2ccccc2)c2ccccc2)c(C(C)C)c1B(c1ccccc1)c1ccccc1                   TGI  > 100 µM
2  O=C1Nc2ccccc2SC1=C(C(=O)c1ccccc1)C(=O)c1ccccc1                   TGI  > 100 µM
3              N#Cc1c(N2CCCC2)nsc1Nc1ccccc1                   TGI  > 100 µM
4  CN1C/C(=C\c2ccc(C(=O)O)cc2)C(=O)/C(=C/c2ccc(C(=O)O)cc2)C1                   TGI  > 100 µM
5  COc1cc(-c2nc(SC)nc3c2CCc2ccccc2-3)cc(OC)c1OC                   TGI  > 100 µM

Please state, for each entry, its recorded TGI.
1. CC(=O)/C(=C/N1CCN(C(=O)c2ccco2)C1=S)C(=O)c1ccccc1
2. CCOc1ccccc1N=Cc1c2ccccc2cc2ccccc12
3. COC1CC(n2cc(F)c(N)nc2=O)OC1CO (stereo unspecified)
4. COc1ccc(C2C3=C(COC3=O)N(CCO)c3cc4c(cc32)CCC4)cc1 (stereo unspecified)
5. Fc1ccc2c(c1)nc1n2C(c2c(F)cccc2F)SC1 (stereo unspecified)
6. N=C1C=C(N)C(=O)c2ccccc21

1: 20.4 µM; 2: 38.2 µM; 3: > 100 µM; 4: > 50 µM; 5: > 100 µM; 6: 0.421 µM
